# testTarget: Somatostatin receptor type 2 (Homo sapiens)
# assayInfo: Binding affinity to human sst2 receptor
assayReadout: pKi
Quick note: pKi means taking -log10 of the concentration in moles per liter.

Value of measured pKi for the entry `NCCCCCOc1ccccc1OCCc1c[nH]c2ccccc12` : 5.33

====

# testTarget: Somatostatin receptor type 2 (Homo sapiens, UniProt P30874)
# Sequence (P30874 whole entry): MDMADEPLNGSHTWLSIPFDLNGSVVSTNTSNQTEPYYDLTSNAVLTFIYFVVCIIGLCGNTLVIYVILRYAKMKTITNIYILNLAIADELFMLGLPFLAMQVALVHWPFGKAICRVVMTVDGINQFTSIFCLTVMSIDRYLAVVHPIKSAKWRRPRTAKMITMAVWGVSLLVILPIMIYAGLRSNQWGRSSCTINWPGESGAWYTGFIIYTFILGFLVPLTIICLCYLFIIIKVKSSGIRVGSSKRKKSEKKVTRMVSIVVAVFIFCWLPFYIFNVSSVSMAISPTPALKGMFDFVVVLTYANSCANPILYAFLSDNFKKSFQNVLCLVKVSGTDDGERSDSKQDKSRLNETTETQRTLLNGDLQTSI
# assayInfo: Displacement of [125I]tyr11-SRIF from human sst2 receptor after 60 mins by liquid scintillation counting method
Answer each item with its documented pKi.
Quick note: pKi means taking -log10 of the concentration in moles per liter.

Value of measured pKi for the entry `NCCCc1cc(Cl)cc2c(=O)cc(CCc3cccc4ccccc34)oc12` : 5.58

Value of measured pKi for the entry NCCCc1cc(Cl)cc2c1OC(CCc1cccc3ccccc13)CC2=O (racemic) : 5.16

====

# testTarget: Somatostatin receptor type 4 (Homo sapiens, UniProt P31391)
# Sequence (P31391 whole entry): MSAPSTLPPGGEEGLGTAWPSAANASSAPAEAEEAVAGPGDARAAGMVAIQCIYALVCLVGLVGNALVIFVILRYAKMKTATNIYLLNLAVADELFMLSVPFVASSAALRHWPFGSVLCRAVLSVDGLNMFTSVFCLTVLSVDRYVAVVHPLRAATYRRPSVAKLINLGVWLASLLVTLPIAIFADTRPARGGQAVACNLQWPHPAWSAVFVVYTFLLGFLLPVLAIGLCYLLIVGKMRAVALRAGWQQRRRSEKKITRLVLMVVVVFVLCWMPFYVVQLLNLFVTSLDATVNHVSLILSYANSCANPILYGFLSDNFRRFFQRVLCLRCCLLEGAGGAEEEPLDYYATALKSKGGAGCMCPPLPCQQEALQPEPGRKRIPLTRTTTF
# assayInfo: Displacement of [125I]tyr11-SRIF from human sst4 receptor after 60 mins by liquid scintillation counting method
assayReadout: Ki (µM)
Respond numerically; units are µM and should not be typed.

Value of measured Ki for the entry NCCCc1cc(Cl)cc2c1OC(CCc1cccc3ccccc13)CC2=O (racemic) : 7.09

Value of measured Ki for the entry `NCCCc1cc(Cl)cc2c(=O)cc(CCc3cccc4ccccc34)oc12` : 1.17
